System: OVCAR-3 ovarian
ASSAY_OVERVIEW: NCI tumour cell line growth inhibition, 48 h
RESULT_TYPE: TGI (µM)

COC(=O)[C@@H](C)C[C@H](Cc1ccccc1)NC(=O)c1nc([C@@H](C[C@H](C(C)C)N(C)C(=O)[C@@H](NC(=O)[C@H]2CC(=O)CCN2C)C(C)C)OC(C)=O)sc1C(C)C = 0.62
COc1ccc(Cc2nc3cc(C(F)(F)F)ccc3n2C[C@@H]2CCCN3CCCCC23)cc1 (stereo not given in full) = 12.8
CS(=O)(=O)Sc1ccc(Cl)cc1 = 19.3
C[C@@H](NC(=O)Nc1cccc(C(=O)Nc2cc(C(C)(C)C)ccc2C(=O)O)n1)c1ccccc1 = 51.1
CCOc1ccc(-c2nc3ccc(-c4nc5ccc(N6CCN(C)CC6)cc5[nH]4)cc3[nH]2)cc1OCC = 2.63
N/C(=N\O)c1cn(C2OC(CO)C(O)C2O)c2ncnc(N)c12 (stereo not given) = 9.76

---

Test system: K-562 leukemia
ASSAY_OVERVIEW: NCI tumour cell line growth inhibition, 48 h; in the data active = GI50 below about 0.43 µM; inactive = the rest
Outcome codes: active, inactive

Nc1nc(-c2ccccn2)c(-c2ccc3ncccc3n2)s1 = inactive
O=c1c2cc(F)ccc2sc2c(NCCCNCCO)nc3ccc(F)cc3c12 = inactive
CC/C(=C\c1ccc(N(C)C)cc1)c1ccncc1 = inactive
CC1(C)CCC(c2ccc(Cl)cc2)=C(CN2CCN(c3ccc(C(=O)NS(=O)(=O)c4ccc(N[C@H](CCN5CCOCC5)CSc5ccccc5)c(S(=O)(=O)C(F)(F)F)c4)cc3)CC2)C1 = inactive
N#CSc1c[nH]c2cccc(/C=C/C(=O)/C=C(O)/C=C/c3cccc4[nH]cc(SC#N)c34)c12 = active
Nc1ncnc2c1ncn2C1SC(CO)C(O)C1O (stereo unspecified) = inactive

---

Tested on: SF-295 CNS
ASSAY_OVERVIEW: NCI tumour cell line growth inhibition, 48 h; in the data active = GI50 below about 0.43 µM; inactive = the rest
Outcome codes: YES = active, NO = inactive

COc1cc(C(=O)N[C@@H]2CCCN(C)C2)ccc1Nc1ncc2c(n1)N(C1CCCC1)CC(C)(C)C(=O)N2C = YES
COc1ncc(-c2ccc3nc(N)n(-c4ccccc4C(F)(F)F)c(=O)c3c2)cc1S(=O)(=O)Nc1ccc(F)cc1F = NO
Cc1ccc(CNc2ccc(Cl)cc2NCc2ccc(C)c(O)c2)cc1O = NO
CC/C(=C\c1ccc(N(C)C)cc1)c1ccncc1 = NO
CC(C)OC(=O)OCOP(=O)(OCOC(=O)OC(C)C)C1CCCN(O)C1=O (stereo not drawn) = NO
N#CCC1CCN(c2nc(Nc3ccc(N4CCC(O)CC4)cc3)c3c(=O)[nH]ncc3n2)CC1 = NO
C=C(C)[C@@H]1CC[C@]2(C(=O)OC)CC[C@]3(C)[C@H](CC[C@@H]4[C@@]5(C)CC/C(=N\OCCC(=NCCC#N)NOCCC#N)C(C)(C)[C@@H]5CC[C@]43C)[C@@H]12 = NO
CN(C)c1ccc(-c2cc(-c3cccc(NS(C)(=O)=O)c3)nc(N)c2C#N)cc1 = YES

---

Test system: SF-295 CNS
ASSAY_OVERVIEW: NCI tumour cell line growth inhibition, 48 h
RESULT_TYPE: TGI

OC1(c2ccccc2)c2ccccc2N(c2ccccc2)c2ccc(Cl)cc21 (stereo not given) = 2.27 µM
CCOC(=O)c1cn2c(n1)sc1cc([N+](=O)[O-])ccc12 = > 100 µM
CC(C)OC(=O)OCOP(=O)(OCOC(=O)OC(C)C)C1CCCN(O)C1=O (stereo not given) = > 100 µM
Nc1ccc(Oc2ccc(C3(c4ccc(Oc5ccc(N)c(O)c5)cc4)C4CC5CC(C4)CC3C5)cc2)cc1O = 14.9 µM
CC(C(=O)NCNC(=O)c1ccccc1)C(=O)NCc1ccccc1 (stereo not given) = > 100 µM
O=c1[nH]c2ccccc2c(=O)c2cc3ccccc3cc12 = 53.9 µM
Cc1nnc(NS(=O)(=O)c2ccc(N=Nc3c(O)c(C(=O)O)cc4ccccc34)cc2)s1 = > 100 µM
CCCCCCCCCCCCNC(=O)N[C@H](C(=O)N[C@H]1/C=C/OCCNC(=O)/C=C/[C@H](C(C)C)NC1=O)C(C)C = > 100 µM
CCN(CC)CCCC(C)Nc1ccnc2cc(OC)ccc12 (stereo not given) = > 100 µM
CC1CC(=O)C(CC(=O)O)[C@H]1C(C(=O)C(=O)Nc1cc(Cl)ccc1Cl)[N+](=O)[O-] (stereo not given in full) = > 100 µM

---

# key: entry, value: TGI
Test system: UO-31 renal
ASSAY_OVERVIEW: NCI tumour cell line growth inhibition, 48 h
RESULT_TYPE: TGI (µM)

CCN(CC)c1ccc(C=C2C(=O)NC(=S)NC2=O)cc1 = 3.61
C=C1C(=O)O[C@H]2[C@H]1CC/C(COC(=O)NCc1ccc(Cn3c(=O)sn(CCCI)c3=O)cc1)=C\CC[C@@]1(C)O[C@@H]21 = 2.94
COc1ccc2c(c1)c(-c1nc(-c3cn(C)c4ncccc34)cs1)cn2CCCCN1CCCCC1 = 2.77

---

# key: entry, value: TGI
Tested on: 786-0 renal
ASSAY_OVERVIEW: NCI tumour cell line growth inhibition, 48 h
RESULT_TYPE: TGI

CC(=O)NNc1nc(C)c(C(=O)NNC(=O)C(=O)Nc2ccc(C)cc2[N+](=O)[O-])s1 = > 100 µM
N#CN1CCC2CC(=O)CCC2C1 (stereo unspecified) = > 100 µM
COc1ccc(CCN2C(=O)C(=O)C(C(=O)c3ccccc3)C2c2ccccc2)cc1OC (stereo unspecified) = > 100 µM
CC/C(=C\c1ccc(N(C)C)cc1)c1ccncc1 = 46.4 µM
Cc1nc2ccccc2c(=O)n1/N=C(\N=Nc1ccc(Cl)cc1)c1ccc(N(C)C)cc1 = > 100 µM
CCC[CH2][Sn]1([CH2]CCC)[O]C(=O)c2cccnc2[S]1 = 6.8 µM
CCOC(=O)c1sc(N)nc1N1CCCC1 = > 100 µM
CC(C)=CCN1c2ccccc2[C@@]2(CC=C(C)C)CCN(C)[C@@H]12 = 53 µM
CCCCCCCC(=O)N1C2CC3CCC2(CS1(=O)=O)C3(C)C (stereo unspecified) = 31.7 µM
O=c1ccn([C@@H]2C[C@H](CO)CS(=O)C2)c(=O)[nH]1 (stereo partly specified) = > 100 µM
O=C(c1ccccc1)N1N=C(C(F)(F)F)CC1(O)C(F)(F)F (stereo unspecified) = > 100 µM

---

Test system: CCRF-CEM leukemia
ASSAY_OVERVIEW: NCI tumour cell line growth inhibition, 48 h
RESULT_TYPE: TGI (µM)

NC1=Nc2cc(OCCCCN3Cc4ccccc4C3)c(OCC3CC3)cc2C12CCCC2 = 9.5
CC(=O)Nc1ccc(S(=O)(=O)N2C(=O)CCC2C(=O)Nc2ccccc2)cc1 (centres undefined) = 14.2
O=C(c1ccco1)c1c(C(F)(F)F)n([O-])c2cc(Cl)c(Cl)cc2[n+]1=O = 9.5
COc1cccc(-c2cc(-c3ccc(Nc4nc(Nc5ccc(Cl)cc5)nc(Nc5ccc(Cl)cc5)n4)cc3)nc(N)c2C#N)c1 = 11.5

---

Tested on: 786-0 renal
ASSAY_OVERVIEW: NCI tumour cell line growth inhibition, 48 h
# key: entry, value: GI50
RESULT_TYPE: GI50

CCCN1CCCC(c2ccc(Nc3nc(Nc4cc(F)ccc4C(N)=O)c4cc[nH]c4n3)c(OC)c2)C1 (centres undefined) = 2840 nM
CNC(=S)N/N=C/CSC/C=N/NC(=S)NC = > 100000 nM
C=C(C)[C@@H]1CC[C@]2(C(=O)OC)CC[C@]3(C)[C@H](CC[C@@H]4[C@@]5(C)CC/C(=N\OCCC(=NCCC#N)NOCCC#N)C(C)(C)[C@@H]5CC[C@]43C)[C@@H]12 = 6420 nM
N=C(N)c1ccc(-c2ccc(-c3cccs3)s2)cc1F = 1140 nM

---

System: HCT-116 colon
ASSAY_OVERVIEW: NCI tumour cell line growth inhibition, 48 h
# key: entry, value: TGI
RESULT_TYPE: TGI

O=c1[nH]c2c(ccc3cnccc32)c2c1CCC2 = > 45.8 µM
Nc1nc(NCc2ccccc2)cc(NCc2ccccc2)n1 = 21.2 µM
CC(=O)OCC1OC(NC(=S)Nn2c(-c3ccccc3)nc3ccccc3c2=O)C(OC(C)=O)C(OC(C)=O)C1OC(C)=O (stereo not given) = > 100 µM
COc1ccc(CCN2C(=O)C(=O)C(C(=O)c3ccccc3)C2c2ccccc2)cc1OC (stereo not given) = > 100 µM
O=C(N=Nc1c(O)[nH]c2c(Cl)cc(Cl)cc12)C(=O)Nc1cccc(C(F)(F)F)c1 = > 100 µM
O=C(O)c1ccc2nc(-c3ccccn3)c(-c3ccccn3)nc2c1 = > 100 µM
COc1cc(-c2nn(-c3cccc(NC(=O)NCCNC(=O)c4ccccc4)c3)cc2-c2ccncc2)ccc1Cl = > 100 µM
C=CN(C(=O)N1CCN(c2cc3c(cc2F)c(=O)c(C(=O)O)cn3C2CC2)CC1)c1nc(-c2ccc(C)cc2)cs1 = > 100 µM
O=C(CNC(=O)c1cccc2ccccc12)Nc1ccccc1Oc1ccc(O)cc1 = > 25 µM
CC12CCC(C(=Nc3ccc([N+](=O)[O-])cc3)C1=O)C2(C)C (stereo not given) = > 100 µM
CCn1nc(C#Cc2c(C)ccc3c(Nc4ccc(Cl)cc4)nccc23)c2c(N)ncnc21 = > 100 µM
O=C1N(c2ccccc2)C2(O)C(=O)c3ccccc3C2(O)N1c1ccccc1 (stereo not given) = > 100 µM
CCc1c(N=[N+]=[N-])c2ccccc2oc1=O = > 100 µM
CCC[CH2][Sn]1([CH2]CCC)[O]C(=O)c2cccnc2[S]1 = 17.9 µM
O=P(c1ccccc1)(c1ccccc1)C1CC=C2CCCCCC2C1 (stereo not given) = 40.3 µM
C[C@H]1CC(=O)C[C@@H]2CC[C@@H]3[C@H](CC[C@]4(C)C(OC(=O)c5cccc6c(=O)c7ccccc7[nH]c56)CC[C@@H]34)[C@]21C (stereo not given in full) = > 100 µM
COCc1nc(C#N)c(N)o1 = > 10 µM
COc1cc(OC)cc(Oc2nc3ccc(C(F)(F)F)cc3nc2-c2ccccc2)c1 = > 100 µM
CC[C@@]12CC(C(=O)OC)=C3Nc4ccccc4[C@@]34CCN(C[C@H]3O[C@H]31)[C@@H]24 = > 100 µM
CC(=O)Nc1ccc2c3c(cc(O)c2c1)N(C(=O)CCCCCCC(=O)Nc1ccc2c4c(cc(O)c2c1)N(C(=O)OC(C)(C)C)CC4CCl)CC3CCl (stereo not given) = 11.9 µM
CC1=C(C(N)=O)C(c2ccncc2)C(C#N)C(=O)N1 (stereo not given) = > 100 µM
CC(=O)O[C@H]1CC[C@@]2(C)C(=CC[C@@H]3[C@@H]2CC[C@]2(C)C(=O)/C(=C\c4ccccc4)C[C@@H]32)C1 = > 100 µM
C=CC(C)(C)[C@@]12CC3C(=O)N[C@@H](Cc4ccccc4)C(=O)N3[C@@H]1N(C(C)=O)c1ccccc12 (stereo not given in full) = > 100 µM
O=[N+]([O-])C1=Cc2c(O)ccc(O)c2C2c3ccccc3NC12 (stereo not given) = 22.7 µM
Cc1cc(Br)ccc1N=NC1C(=O)ON=C1c1ccccc1 (stereo not given) = > 100 µM
Cc1ccccc1C1N=C2Oc3ccccc3C=C2C(=O)N1 (stereo not given) = > 100 µM
O=C(NNC(=O)c1cc2ccccc2[nH]1)c1cc2ccccc2[nH]1 = > 100 µM
COc1cc(C(=O)N[C@@H]2CCCN(C)C2)ccc1Nc1ncc2c(n1)N(C1CCCC1)CC(C)(C)C(=O)N2C = 5.21 µM
COc1ccc2nc3cc(Cl)ccc3c(NCCCN(C)CCCNc3ccc4ncn5c6ccccc6c(=O)c3c45)c2c1 = 4.86 µM
COc1ccc(Cc2c3cc(OC)c(OC)cc3cc[n+]2C)cc1 = > 24.8 µM
O=C1C(CN2CCCC2)CCC1CN1CCCC1 (stereo not given) = 32.6 µM
COC(=O)[C@@H](C)C[C@H](Cc1ccccc1)NC(=O)c1nc([C@@H](C[C@H](C(C)C)N(C)C(=O)[C@@H](NC(=O)[C@H]2CC(=O)CCN2C)C(C)C)OC(C)=O)sc1C(C)C = 3.04 µM
CCOC(=O)c1c2ccccc2n2c(=O)n(-c3ccccc3)nnc12 = > 100 µM
Cc1c(CNc2ccc(Cl)c(Cl)c2Cl)cnc2nc(N)nc(N)c12 = 1.55 µM
COC(=O)[C@]1(CCC(C)=O)C(=O)C=CN([C@H](C)c2ccccc2)[C@@H]1Cc1ccc(OC)c(OCc2ccccc2)c1I = 27 µM
C/C(=C\COP(=O)(O)CP(=O)(O)O)CC/C=C(\C)CNc1ccccc1 = > 100 µM
CC1(C)CC[C@]2(C(=O)O)CC[C@]3(C)C(=CC[C@@H]4[C@@]5(C)C/C(=C/c6cccnc6)[C@H](O)C(C)(C)[C@@H]5CC[C@]43C)[C@@H]2C1 = 22.4 µM
NCCCc1nonc1C(=O)O = > 100 µM
CCN(CC)c1ccc(C=C2C(=O)NC(=S)NC2=O)cc1 = 8.98 µM
Cc1cc(C)c(CNC(=O)c2cc(Cl)c3c(c2C)O[C@@](C)(C2CCC(N(C)C)CC2)O3)c(=O)[nH]1 (stereo not given in full) = > 100 µM
